biological target: Human recombinant MMP14 (Homo sapiens, UniProt P50281); experiment: MMP14 (MTI-MMP) inhibition, 14C collagen release; type: biochemical; conditions: 35° C., 15 hours; read-out: MMP-14 inhibitory activity, IC50
pIC50: −log10 of the molar value.
Output y for pIC50 not less than 4; output n otherwise.

{"COMPOUND": "CC(=O)OC1C2C(=C(O)C3(O)C(=O)C(C(N)=O)=C(O)C(N(C)C)C13)C(=O)c1c(O)cccc1C2C (stereo not drawn)", "GROUP": "y"}
{"COMPOUND": "CC1c2ccc([N+]#N)c(O)c2C(=O)C2=C(O)C3(O)C(=O)C(C(N)=O)=C(O)C(N(C)C)C3C(O)C21 (stereo not drawn)", "GROUP": "y"}
{"COMPOUND": "CC(=O)Nc1cc(N(C)C)c2c(c1O)C(=O)C1=C(O)C3(O)C(=O)C(C(N)=O)=C(O)C(N(C)C)C3CC1C2 (stereo not drawn)", "GROUP": "n"}
{"COMPOUND": "CC1c2c(N=[N+]=[N-])ccc(O)c2C(=O)C2=C(O)C3(O)C(=O)C(C(N)=O)=C(O)C(N(C)C)C3C(O)C21 (stereo not drawn)", "GROUP": "n"}

Let's switch to this compound now.
Determine whether this compound has pIC50 no lower than 4: CC(=O)Nc1cc(N)c(O)c2c1C(C)C1C(=C(O)C3(O)C(=O)C(C(N)=O)=C(O)C(N(C)C)C3C1O)C2=O (stereo not drawn)
n
